Protocol text: soluble on expression in E. coli; label from the status in PepcDB or PDB records

{"columns": ["Sequence content", "soluble on expression in E. coli"],
 "data": [
  ["MSQVQFSHNPLFCIDIIKTYKPDFTPRVAFILGSGLGALADQIENAVAISYEKLPGFPVSTVHGHAGELVLGHLQGVPVVCMKGRGHFYEGRGMTIMTDAIRTFKLLGCELLFCTNAAGSLRPEVGAGSLVALKDHINTMPGTPMVGLNDDRFGERFFSLANAYDAEYRALLQKVAKEEGFPLTEGVFVSYPGPNFETAAEIRMMQIIGGDVVGMSVVPEVISARHCDLKVVAVSAITNMAEGLSDVKLSHAQTLAAAELSKQNFINLICGFLRKIA", "soluble"],
  ["SKKGGKRFEIACYKNKVMSWRSGAEKDLDEVLQTNTVFVNVSKGQVAKKEDLSNAFGTDDLTEICKQILSKGELQVSDKERQSQLEQMFRDIATIVAEKCVNPETKRPYTVNLIERAMKDIHFSVKANKSTKQQALEVIKQLKESIQIQRAHMRLRFVLPAKDGKRLKEKLKPLIKAVENEDFDDQLEMVCLIDPGCFRDIDELIRCETKGKGTLEVLSLKDVEEGDEKLE", "soluble"],
  ["MSLMEDVGKEMSKIIQKRDINERYEELVNEVLKDQDVQAFIQANRERLTDEDIRKSYAKLYEFVQEKKKFQVNDPAMIAPGYEPRLMLNFHYIDVTYVPTADLIARQKEEEIRNRVRAMDMPKDVREANLRDFDPSSQGRAKALAEAMQFLREYPATPKEFHKGLYLQGPFGVGKSFLLGAMANALAERGFTTTIVHFPTFTVEMKQAIGRDQVGEKLDAVKKSPILMIDDIGAESMTSWIRDDVLSVILQYRMQEQLVTFFSSNLDLKALEEHLTVTQRGEQEPLKARRIMERVRYLSKEITMTGNDRRNGEGHHHHHH", "soluble"]
]}

---

Protocol text: soluble on expression in E. coli; label from the status in PepcDB or PDB records
Endpoint name: soluble on expression in E. coli

{"columns": ["Sequence content", "soluble on expression in E. coli"],
 "data": [
  ["EHIKQKNSEIAELTLQNQRDADSVEYYKALVSQDEKQKVLIHDIKKHLNAIASLNEQHDSEKIAAYLTHVLGSSELKHSVRVCDNDLLNALLCRYQKICLTKKIALHIDIRSKCIDFVTYDDLSVLFGNLMDNAVESAEKTVNPFIELNVFHKENNNMTIITLIDSCRVNPIDKNGNLLPTKKPNPQFHGFGMRSIENIVKKYNGEMTFYFDDPTKTFHTIIMLRH", "not soluble"],
  ["MAHHHHHHMGNTVPYNCYERWGKRTPDGPLLNYDPQMPNSGTLSVLLENFDYESTEESNNKCEYIINKEPIEKNNNMNPKVIRNARRRPTYSPTARKINIQSDDEEEDEDDDEKLSTDDSDENISAKDIKDEKIQQYRKTLTKIVKIKTAIFHETVKVTCSKDGKMLEWYKGKNDSDGKKKPIGSFPLNKITSIRTKVDNLKSLEISVSSVHISTYLFTFKTREERESWQNNLESFRKIMSMK", "not soluble"],
  ["MGSDKIHHHHHHMRISLSTGTLFTFPLGKVMRIAREAGFDGVELIINQDFQKVNCRKLIEELAEILPINSIHAPFMPLDGWGGPIDSLERCVELAAGAGIPLVNFHPPSWMGFEIGFWRWLYRVMDFQKEVGRETVIVTLENMPWVGTRFRVNPHILSNTEKLIEFIQERNLYMTFDTTHMGSGKANFINDFYHCYNSGRIRNIHFSDYGHGREHLIPGHGILPLTRFLNHLRSTDYADTLTLELSPEEFPRDERIIVESLREILQYLRRETSPA", "not soluble"],
  ["MNKAYYIGLMSGTSMDGVDAVLVDFAGEQPQLIGTHTETIPTHLLKGLQRLCLPGTDEINRLGRLDRSVGKLFALAVNNLLAKTKIAKDEIIAIGSHGQTVRHMPNLEVGFTLQIGDPNTIATETGIDVIADFRRKDIALGGQGAPLVPAFHQQTFAQVGKKRVILNIGGIANITYLPGNSEEVLGFDTGPGNTLIDAWVQQVKNESYDKNGAWAASGKTDPQLLAQLLSHPYFSLAYPKSTGRELFNQAWLEQQLSAFNQLNEEDIQSTLLDLTCHSIAQDILKLAQEGELFVCGGGAFNAELMQRLAALLPGYRIDTTSALGVDPKWAEGIAFAWLAMRYQLGLPANLPAVTGASREAILGGRFSAK", "soluble"],
  ["MGSDKIHHHHHHMALLEVHNLNKRFTDHISLFHKQRFYAVKNISFNLNEGETIAIIGENGAGKSTLAKMIAGITKPTSGDMFFRYKKLTYGDYQFRTKHIRMMFQDPNHTFNPNHNIGQILDAPLRLATDMNEQERNECIFNTLKLVGMYPEYALIPIKETSTSQKQRIALARALILSPEIIIADDTLSTLDFSVKTQLTNLMLNLQEKLGIAFIYVGQHLGIIKHIADKLIIMHQGEAIEYGDTKEVLLNPQNPITARLIESHFGKMLTEDAWAK", "not soluble"]
]}

I would be grateful if you could share the reported soluble on expression in E. coli for MGETKLFFGPNHPGMHGNFSVHMYVEGDIVKKARPVPGFLHRGFEKLMERRYWYSNISLIPRICVPEPDINEICYAMAIEKIAKVEVPERAQWIRMIVLELARIANHIWTVGGIGGPLGLYTASHWGVADRDRILDIFEALSGARVYHMYIIPGGVRKNMTPKIEEMIWKTLDYIESRLPDYENLIFKNRIVHSRLRGRLILTREQAVEMGVTGVGLRATGVEYDIRKVDPYLFYDRVEFEVPTATDGDAFSRVYLKFKEIPQSIKIIRQALEKMPQADRVNVPIGRGNGLRRIVPKGMAYAHVESTRGEYGFFVVSDGKNKPYRVAVRGASYPQGLYGIEKYLPGTRIEDVPIWLATMDVCAPEIDR .
soluble

I would be grateful if you could share the reported soluble on expression in E. coli for YEVKVKLADIQADPNSPLYSAKSFDELGLAPELLKGIYAMKFQKPSKIQERALPLLLHNPPRNMIAQSQSGTGKTAAFSLTMLTRVNPEDASPQAICLAPSRELARQTLEVVQEMGKFTKITSQLIVPDSFEKNKQINAQVIVGTPGTVLDLMRRKLMQLQKIKIFVLDEADNMLDQQGLGDQCIRVKRFLPKDTQLVLFSATFADAVRQYAKKIVPNANTLELQT .
soluble

I would be grateful if you could share the reported soluble on expression in E. coli for MGSDKIHHHHHHMKREEIADLMAFVVVAEERSFTRAAARLSMAQSALSQIVRRIEERLGLRLLTRTTRSVVPTEAGEHLLSVLGPMLHDIDSAMASLSDLQNRPSGTIRITTVEHAAKTILLPAMRTFLKSHPEIDIQLTIDYGLTDVVSERFDAGVRLGGEMDKDMIAIRIGPDIPMAIVGSPDYFSRRSVPTSVSQLIDHQAINLYLPTSGTANRWRLIRGGREVRVRMEGQLLLNTIDLIIDAAIDGHGLAYLPYDQVERAIKEKKLIRVLDKFTPDLPGYHLYYPHRRHAGSAFSLFIDRLKYKGAV .
not soluble

I would be grateful if you could share the reported soluble on expression in E. coli for MAAKLQKWRNLAGRLDLMNRSGAVSTRRFLHEGPDTVEELLERHLAKKEKPIIDHDEAEFLNRRRLTSTRREALSLYRDILRATRFFTWIDSRGNLWRDVLRENARKEFEAARFETDPEVITRLLIGGSDAVSSALDKLAEKQREMIEKQRRGDQR .
soluble

I would be grateful if you could share the reported soluble on expression in E. coli for MAQTIQLANHSEMTIIDNDLHVDVIGNQAHFSFSGLHNKTFTDREVLFEMPFLYEHEANVIGDGFQMLAQTSGTITHPIEIGRCPDNIPPYRVYSQHAPKRYYNYLVIEDSAGYTLFGFTTCRRFAGYFDIQQRNGQWILTAAIDGEHTQVADWEHNQ .
not soluble

I would be grateful if you could share the reported soluble on expression in E. coli for KQKRARLIYNPTSGQEIMKKNVAEVLDILESFGYETSAFQTTPRADSAKNEAARASQAGFDLVIAAGGDGTINEVVSGIAPLKRRPKVAIIPTGTTNDFARALKIPRGNPVEATKLIGKNQTIHMDIGRAYND .
not soluble

I would be grateful if you could share the reported soluble on expression in E. coli for MAHHHHHHMESLDERWNNQVDNFHIKVNKLRCDMNEYKKGCYNTYNLRNNKNDVFPHLQNNNMKRRELINMNNNYEIKNYLKKPHNQTYILKDNKYVNVDDITFPVSKNISNKVIKTNDEKILENKCCFKLNVRNKRKNEKVIKINEKRWLIATKHVKIERVNKNGVEQSEEKNKKDKNRYIYLEGEEGNLHLYPMYSDSEVGFENISHIEDESLSKVKKENQDDDDIMTTKHLAQWSSDIVHKYLEEAIEKSKSIFQNCNMESRQEEIFKRIKL .
not soluble
